ASSAY_TARGET: Akt3 (Homo sapiens, UniProt Q9Y243)
Construct: endogenous in cells
Sequence (Q9Y243 whole entry): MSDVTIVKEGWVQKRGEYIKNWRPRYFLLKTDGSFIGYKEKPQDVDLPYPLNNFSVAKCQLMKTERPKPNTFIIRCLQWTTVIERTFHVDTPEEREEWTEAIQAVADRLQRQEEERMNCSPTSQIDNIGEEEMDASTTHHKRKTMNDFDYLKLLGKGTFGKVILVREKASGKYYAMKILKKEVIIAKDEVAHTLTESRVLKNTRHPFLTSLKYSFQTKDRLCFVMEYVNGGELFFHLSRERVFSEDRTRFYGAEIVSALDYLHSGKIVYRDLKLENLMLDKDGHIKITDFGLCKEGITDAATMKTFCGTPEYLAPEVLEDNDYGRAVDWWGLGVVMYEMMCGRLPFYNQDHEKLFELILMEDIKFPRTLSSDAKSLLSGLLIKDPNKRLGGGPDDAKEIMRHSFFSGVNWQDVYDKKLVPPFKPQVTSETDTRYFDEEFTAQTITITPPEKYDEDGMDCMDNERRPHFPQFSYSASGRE
PROTOCOL_TEXT: Akt3 activation activity of selected compounds
MEASURED_QUANTITY: EC50

Query: State its EC50 on Akt3 (Homo sapiens, UniProt Q9Y243): N#Cc1ccc2nccc(Nc3cccc(C(=O)Nc4ccc(Nc5ccncc5)cc4)c3)c2c1
Response: < 5 µM
